All values here come from patent US6872749B2.

Test context: bovine, in vivo
Observable: Bioavailability (%)

// solved cases for Bioavailability follow
| Compound | Bioavailability [%] |
| --- | --- |
| CCOC(=O)C(O)CCSC (stereo not drawn) | 35 |
| CCCCOC(=O)C(O)CCSC (stereo not drawn) | 17 |
| CCC(C)OC(=O)C(O)CCSC (stereo not drawn) | 31 |

A = CSCCC(O)C(=O)OC(C)C (stereo not drawn)
B = COC(=O)C(O)CCSC (stereo not drawn)
C = CSCCC(O)C(=O)OC1CCCCC1 (stereo not drawn)
IN: Hello, I need these entries ordered by Bioavailability, highest reading first. Thanks! Please list each label once, in the requested order.
OUT: A, B, C
